System: SEM cells
Assay: cell viability relative to DMSO control; higher = less cytotoxic
Settings: RPMI 5 mM glucose + 10% dialyzed FBS; 48 h; 1.71 µM
Label 1 (yes) when cell viability is strictly below 80%; otherwise label 0 (no).

Input line: Consider `Cc1cccc(Nc2nc(-c3ccncc3)cs2)c1` . Does its cell viability lie strictly below 80%?
Output line: 0 (no)

Input line: Does the reported cell viability of the following compound sit strictly below 80%? `CC(C)C1=C(O)C=C(O)C(=C1)C/2=N/NC(=O)N2C3=CC4=C(C=C3)[N](C)C=C4`
Output line: 1 (yes)

Input line: Bench note: check whether `CN1C[C@H]2c3ccccc3Oc3ccc(Cl)cc3[C@@H]2C1` shows cell viability below 80%
Output line: 0 (no)

Input line: I'd appreciate it if you could check whether `NC/1=N/C2=C([NH]C=N2)C(=S)N1` has cell viability smaller than 80%.
Output line: 1 (yes)

Input line: Just wondering, is cell viability of `COC(=O)[C@@H]1[C@H]2C[C@H]3c4[nH]c5ccccc5c4CCN3C[C@@H]2CC[C@@H]1O` below 80%?
Output line: 0 (no)

Input line: cell viability strictly < 80% for this compound? `Nc1ncnc2c1c(-c1cnc3[nH]ccc3c1)nn2C1CCCC1`
Output line: 1 (yes)

Input line: Identify whether the compound `CC(C)C[C@H](NC(=O)[C@H](CCc1ccccc1)NC(=O)CN1CCOCC1)C(=O)N[C@@H](Cc1ccccc1)C(=O)N[C@@H](CC(C)C)C(=O)[C@@]1(C)CO1` records cell viability below 80%.
Output line: 1 (yes)

Input line: I'd appreciate it if you could check whether `CCn1c(-c2nonc2N)nc2cnc(Oc3cccc(NC(=O)c4ccc(OCCN5CCOCC5)cc4)c3)cc21` has cell viability smaller than 80%.
Output line: 0 (no)

###

System: P12-Ichikawa
Assay: cell viability relative to DMSO control; higher = less cytotoxic
Conditions: HPLM + 10% dialyzed FBS; 48 h; 0.0632 µM
EXPERIMENTAL ENDPOINT: cell viability (%)
Respond with the bare value in %.

Input line: What reported cell viability corresponds to `C#C[C@]1(O)CC[C@H]2[C@@H]3CCc4cc(O)ccc4[C@H]3CC[C@@]21C` on P12-Ichikawa?
Output line: 95.7

Input line: // map `N#Cc1c(NC(=O)c2cccc3ccccc23)sc2c1CCCC2` to recorded cell viability (system: P12-Ichikawa)
Output line: 136

Input line: Give recorded cell viability with P12-Ichikawa for the following molecule: `COc1ccc(-c2ccc3c(N4CCOC[C@@H]4C)nc(N4CCOC[C@@H]4C)nc3n2)cc1CO`
Output line: 83.9

Input line: Entry C[N]1C=C(C2=C1C=CC=C2)\C3=C(\C(=O)NC3=O)C4=C5CC(CN)CC[N]5C6=C4C=CC=C6 (centres undefined) , system P12-Ichikawa: what cell viability was measured?
Output line: 98

Input line: Request body: readout cell viability, system P12-Ichikawa, query CCC(C)(Oc1ccc(C2(c3ccc(OC(C)(CC)C(=O)O)cc3)CCCCC2)cc1)C(=O)O (centres undefined) . Return the value.
Output line: 99.2

Input line: Can you look up cell viability on P12-Ichikawa for `CO[C@@H]1COCC[C@@H]1N[C@@H]1CC[C@@](C(=O)N2CCc3ncc(C(F)(F)F)cc3C2)(C(C)C)C1` ?
Output line: 113

Input line: Lab note: need cell viability for `O=C(O)c1ccc2c(c1)nc(Nc1cccc(Cl)c1)c1ccncc12` on P12-Ichikawa, anyone have it?
Output line: 108

Input line: Find cell viability (P12-Ichikawa) for the entry `CN(C)[C@H]\1[C@@H]2C[C@H]3C(=C(O)\[C@]2(O)C(=O)\C(=C1O)C(N)=O)/C(=O)C4=C(O)C=CC=C4[C@@]3(C)O`
Output line: 113

Input line: # value lookup — system P12-Ichikawa, readout cell viability, item `CC(C)NC[C@@H](C(=O)N1CCN(c2ncnc3c2[C@H](C)C[C@H]3O)CC1)c1ccc(Cl)cc1`
Output line: 100

Input line: GET /values?readout=cell viability&system=P12-Ichikawa&item= `CC(C)C1=C(O)C=C(O)C(=C1)C/2=N/NC(=O)N2C3=CC4=C(C=C3)[N](C)C=C4`
Output line: 116

Input line: Quick check: cell viability on P12-Ichikawa, item `C[C@@]12C[C@@]3(O)O[C@@H](O1)[C@]1(COC(=O)c4ccccc4)[C@H]3C[C@@]12O[C@@H]1O[C@H](CO)[C@@H](O)[C@H](O)[C@H]1O` ?
Output line: 110

Input line: Request - read-out cell viability | tested on P12-Ichikawa | molecule `O=C(c1ccc(Nc2nccc(-c3cc4ccccc4s3)n2)cc1)N1CCC(N2CCCC2)CC1`
Output line: 120

Input line: Recall the recorded cell viability for `COC1=C2OC(=O)\C=C/C2=CC3=C1OC=C3` with P12-Ichikawa and state it.
Output line: 112

Input line: Give P12-Ichikawa cell viability for `Cc1cnc(-c2cc(N3CCN(C(=O)CC[S+](C)(=O)[O-])CC3)ncc2Cl)c(C)c1`
Output line: 124

Input line: Report cell viability for `COc1ccc(C(C)=O)c(O)c1` tested on P12-Ichikawa.
Output line: 109

Input line: Can you look up cell viability on P12-Ichikawa for `CN1CCCN=C1/C=C/c1cccs1.O=C(O)c1cc2ccccc2c(Cc2c(O)c(C(=O)O)cc3ccccc23)c1O` ?
Output line: 112

Input line: Lab request: please report cell viability under test system P12-Ichikawa for `COc1ccc(-n2nc(C(N)=O)c3c2C(=O)N(c2ccc(N4CCCCC4=O)cc2)CC3)cc1`
Output line: 132

Input line: Please provide the recorded cell viability for `C[S+](=O)([O-])N1CCc2c(-c3cnc(N)nc3)nc(N3CCOCC3)nc21` , tested on P12-Ichikawa.
Output line: 111

Input line: Any idea what cell viability came out for `C=C[C@H]1CN2CC[C@H]1C[C@H]2[C@H](O)c1ccnc2ccc(OC)cc12` on P12-Ichikawa?
Output line: 96.3
